Reference for the values: paper PMC2685098

Target: T1, AIRE-PHD1 Glu307Ala (human, UniProt O43918 293-354, Glu307Ala)
T1 sequence (looked up): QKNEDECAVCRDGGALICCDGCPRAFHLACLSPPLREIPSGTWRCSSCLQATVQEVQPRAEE
Assay: ITC
pKd: −log10 of the molar value.
property_name: pKd

{"binder": "ARTKQTARKS [non-modified histone H3 tail peptide H3K4me0 (residues 1-10)]", "result": 4.39}
